assay: Conversion (release) of prodrug salts to parent compound in mouse plasma; format: in vitro ADME; conditions: mouse, plasma, 37 °C, 1 h, read-out: Release rate (conversion to Compound 1)
property-measured: metabolised at 1 h
Could you kindly put the unit after your number?

Incoming: Please give the measured metabolised at 1 h for this compound: CCN1CCN(C[C@@H]2C(=O)O[C@H]3[C@H]2CC[C@@]2(C)C[C@]24CC[C@@](C)(O)[C@H]34)CC1 [Compound 27]
Outgoing: 7.9%

Incoming: Please give the measured metabolised at 1 h for this compound: C[C@@]12CC[C@@H]3[C@H](OC(=O)[C@H]3CN3CCCC3)[C@@H]3[C@]1(CC[C@@]3(C)O)C2 [Compound 22]
Outgoing: 7.4%

Incoming: Please give the measured metabolised at 1 h for this compound: CCCCN(CCCC)C[C@@H]1C(=O)O[C@H]2[C@H]1CC[C@@]1(C)C[C@]13CC[C@@](C)(O)[C@H]23 [Compound 30]
Outgoing: 6.6%

Next, consider the following compound.
Incoming: Please give the measured metabolised at 1 h for this compound: C[C@@]12CC[C@@H]3[C@H](OC(=O)[C@H]3CN3CCCCCCC3)[C@@H]3[C@]1(CC[C@@]3(C)O)C2 [Compound 38]
Outgoing: 6.1%

----------
test: Conversion (release) of prodrug salts to parent compound in HEPES buffer pH 7.4; type: in vitro ADME; conditions: hepes buffer, pH 7.4, HEPES pH 7.4, 37 °C, 4 h; read-out: Release rate (conversion to Compound 82)
property-measured: degraded at 4 h (%)
Numbers only here, please. The scale is %.

Incoming: Please give the measured degraded at 4 h for this compound: CC1=C2CC[C@@](C)(OC(=O)N3CCCC3)[C@@H]2[C@H]2OC(=O)[C@@H](CN3CCCC3)[C@@H]2CC1
Outgoing: 26

----------
assay: Water solubility testing of compounds (HPLC); conditions: deionized water, 37 °C
Rule: Water-solubility under 800 µg/mL gives not satisfied, otherwise satisfied.

Incoming: Textbook exercise: given the entry C[C@@]12CC[C@@H]3[C@H](OC(=O)[C@H]3CN3CCC(N4CCCCC4)CC3)[C@@H]3[C@]1(CC[C@@]3(C)O)C2 [Compound 16] , state whether its Water-solubility is greater than or equal to 800 µg/mL.
Outgoing: not satisfied

Incoming: Textbook exercise: given the entry C[C@@]12CC[C@@H]3[C@H](OC(=O)[C@H]3CN3CCCCC3)[C@@H]3[C@]1(CC[C@@]3(C)O)C2 [Compound 5] , state whether its Water-solubility is greater than or equal to 800 µg/mL.
Outgoing: not satisfied

Incoming: Textbook exercise: given the entry CCOC(=O)[C@@H]1CCCN1C[C@@H]1C(=O)O[C@H]2[C@H]1CC[C@@]1(C)C[C@]13CC[C@@](C)(O)[C@H]23 , state whether its Water-solubility is greater than or equal to 800 µg/mL.
Outgoing: satisfied

Incoming: Textbook exercise: given the entry C=C1C(=O)O[C@H]2[C@H]1CCC(C)=C1CC[C@@](C)(OC(=O)NCCN3CCOCC3)[C@@H]12 [Compound 78] , state whether its Water-solubility is greater than or equal to 800 µg/mL.
Outgoing: not satisfied

Incoming: Textbook exercise: given the entry C[C@@]12CC[C@@H]3[C@H](OC(=O)[C@H]3CN3CCC3)[C@@H]3[C@]1(CC[C@@]3(C)O)C2 [Compound 33] , state whether its Water-solubility is greater than or equal to 800 µg/mL.
Outgoing: satisfied

Incoming: Textbook exercise: given the entry CC(C)N(C[C@@H]1C(=O)O[C@H]2[C@H]1CC[C@@]1(C)C[C@]13CC[C@@](C)(O)[C@H]23)C(C)C [Compound 31] , state whether its Water-solubility is greater than or equal to 800 µg/mL.
Outgoing: satisfied
